- Target: Protein kinase C gamma type (Homo sapiens) (UniProt P05129);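 further: each value is an averaged percent inhibition of the enzyme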
- Test Settings: at 1 µM
Assay Endpoint: inhibition (%)
Give the value in % but do not write % after it.

The recorded inhibition for entry `COc1cc(N2CCN(C(C)C)CC2)ccc1Nc1nc(Nc2ccc(F)cc2C(=O)NC[C@@H](O)CO)c2cc[nH]c2n1` equals 7.34

The recorded inhibition for entry `C/C(Nc1ccc(S(N)(=O)=O)cc1)=C1/C(=O)Nc2ccccc21` equals 2.57

The recorded inhibition for entry `CCN(CC)Cc1ccc(Nc2nccc(-c3cnn4ncccc34)n2)cc1` equals 7.9

The recorded inhibition for entry `CCc1nccc2c1nc(-c1nonc1N)n2CC` equals -2.73

The recorded inhibition for entry `N#Cc1ccc(Oc2nccc(-c3c(-c4ccc(F)cc4)ncn3C3CCNCC3)n2)cc1` equals 4.11

The recorded inhibition for entry `NCc1ccc(-n2c(-c3nonc3N)nc3cnccc32)cc1` equals 42.1

The recorded inhibition for entry `CS(=O)(=O)CCNCc1cc(-c2cc3c(Nc4ccc(OCc5cccc(F)c5)c(Cl)c4)ncnc3s2)cs1` equals 0.58

The recorded inhibition for entry `Clc1ccc(CNc2nccc(-c3cnn4ncccc34)n2)cc1` equals 4.31

The recorded inhibition for entry `Fc1ccc(-c2ncn(C3CCNCC3)c2-c2ccnc(Oc3ccc4c(c3)OCO4)n2)cc1` equals 6.16

The recorded inhibition for entry `COc1ccc(-c2ccc3c(NC(=O)C4CC4)n[nH]c3n2)cc1` equals 2.95

The recorded inhibition for entry `COc1ccc2ncn(-c3cc(O[C@H](C)c4ccccc4Cl)c(C(N)=O)s3)c2c1` equals 2.27

The recorded inhibition for entry `O=C(NCC1CC1)c1ccc(-c2cccc(C(=O)NC3CC3)c2)cc1` equals -1.2

The recorded inhibition for entry COc1ccc2cc(-c3c(-c4ccncc4)nc(-c4ccc([S+](C)[O-])cc4C)n3C)ccc2c1 (stereo not given) equals -0.38

The recorded inhibition for entry `NS(=O)(=O)c1ccc(N/N=C2\C(=O)Nc3ccc(C(=O)NCCCn4ccnc4)cc32)cc1` equals 7.85

The recorded inhibition for entry `COc1cc(C)c(N(C)C(=O)CN(C)C)cc1Nc1nc(Nc2cccc(F)c2C(N)=O)c2cc[nH]c2n1` equals 0.07

The recorded inhibition for entry `C[C@@H](Oc1cc(-n2cnc3ccc(OC4CCN(C)CC4)cc32)sc1C(N)=O)c1ccccc1Cl` equals 4.97

The recorded inhibition for entry `Cc1nnc(-c2ccc(C)c(-c3ccc(C(=O)NCc4ccc(Cl)cc4)cc3)c2)o1` equals 3.88

The recorded inhibition for entry `COc1cccc(/C=N/Nc2ncnc3c2cnn3-c2cccc(OC)c2)c1` equals 6.32

The recorded inhibition for entry `CCS(=O)(=O)c1ccc(OC)c(Nc2ncc(-c3ccccc3Cl)o2)c1` equals 5.15

The recorded inhibition for entry `CCc1ccc(Oc2nccc(-c3c(-c4ccc(F)cc4)ncn3C3CCNCC3)n2)cc1` equals 10.9

====

- Test system: Epidermal growth factor receptor (Homo sapiens), P00533 [T790M]
- Sequence (P00533 whole entry T790M): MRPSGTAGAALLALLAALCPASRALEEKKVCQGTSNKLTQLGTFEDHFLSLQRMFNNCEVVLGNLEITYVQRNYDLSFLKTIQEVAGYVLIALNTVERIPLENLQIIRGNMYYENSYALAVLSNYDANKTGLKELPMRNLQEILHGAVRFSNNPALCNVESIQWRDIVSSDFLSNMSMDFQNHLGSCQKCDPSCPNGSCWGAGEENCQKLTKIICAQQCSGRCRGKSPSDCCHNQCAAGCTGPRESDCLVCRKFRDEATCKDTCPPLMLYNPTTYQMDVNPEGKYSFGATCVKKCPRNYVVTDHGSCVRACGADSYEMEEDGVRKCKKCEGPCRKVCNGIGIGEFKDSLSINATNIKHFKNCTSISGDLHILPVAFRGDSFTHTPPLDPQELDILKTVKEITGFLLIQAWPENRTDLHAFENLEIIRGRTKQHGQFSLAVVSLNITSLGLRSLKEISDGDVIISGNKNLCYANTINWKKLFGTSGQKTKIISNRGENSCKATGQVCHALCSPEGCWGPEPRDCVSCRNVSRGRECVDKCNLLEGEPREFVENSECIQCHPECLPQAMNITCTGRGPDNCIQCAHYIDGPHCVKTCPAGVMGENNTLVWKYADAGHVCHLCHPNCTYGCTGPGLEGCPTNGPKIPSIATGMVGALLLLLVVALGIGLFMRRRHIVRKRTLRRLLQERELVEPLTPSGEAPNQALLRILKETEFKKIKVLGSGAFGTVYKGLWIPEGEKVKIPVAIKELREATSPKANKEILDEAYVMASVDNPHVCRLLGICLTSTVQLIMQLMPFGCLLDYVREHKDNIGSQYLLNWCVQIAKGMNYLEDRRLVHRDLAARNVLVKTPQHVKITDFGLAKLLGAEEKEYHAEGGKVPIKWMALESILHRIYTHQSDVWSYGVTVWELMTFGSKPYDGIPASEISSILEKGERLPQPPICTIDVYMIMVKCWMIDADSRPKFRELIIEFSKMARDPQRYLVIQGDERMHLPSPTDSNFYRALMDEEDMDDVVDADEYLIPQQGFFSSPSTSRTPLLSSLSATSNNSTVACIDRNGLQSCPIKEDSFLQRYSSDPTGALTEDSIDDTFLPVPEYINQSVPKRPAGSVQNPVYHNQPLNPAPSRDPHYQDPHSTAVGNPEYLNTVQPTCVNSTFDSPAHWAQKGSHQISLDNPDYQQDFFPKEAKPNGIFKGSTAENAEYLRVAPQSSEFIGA
- Test Settings: at 1 µM
Assay Endpoint: inhibition (%)
Give the value in % but do not write % after it.

The recorded inhibition for entry `CCc1nccc2c1nc(-c1nonc1N)n2CC` equals -1.27

The recorded inhibition for entry `COc1cccc(-n2cnc3c(N/N=C/c4ccncc4)ncnc32)c1` equals 5.78

The recorded inhibition for entry `COc1cc(Nc2ncc(-c3ccccc3)o2)cc(OC)c1OC` equals 1.16

The recorded inhibition for entry `C/C(Nc1ccc(S(N)(=O)=O)cc1)=C1/C(=O)Nc2ccccc21` equals 0.03

The recorded inhibition for entry `COc1cc(N2CCN(C(C)C)CC2)ccc1Nc1nc(Nc2ccc(F)cc2C(=O)NC[C@@H](O)CO)c2cc[nH]c2n1` equals 25.8

The recorded inhibition for entry `Cc1ccc(NC(=O)c2ccoc2)cc1-c1ccc(C(=O)NCC2CC2)cc1` equals 0.9

The recorded inhibition for entry `COc1ccc(-c2ccc3c(NC(=O)C4CC4)n[nH]c3n2)cc1` equals 4.06

The recorded inhibition for entry `CN(c1ccc(NC(=O)Nc2c(Cl)cccc2Cl)cc1)c1ccnc(Nc2cccc(CS(C)(=O)=O)c2)n1` equals 2.21

The recorded inhibition for entry `C#Cc1cccc(Nc2ncnc3ccc(OCCCCNCCS(C)(=O)=O)cc23)c1` equals 14.6

The recorded inhibition for entry `COc1cc2ncn(-c3cc(OCc4cccs4)c(C(N)=O)s3)c2cc1OC` equals 5.88

The recorded inhibition for entry `O=C1Nc2ccc(I)cc2C1=Cc1cc(Br)c(O)c(Br)c1` equals 1.77

The recorded inhibition for entry `NC(=O)c1cc(-c2ccncc2)cc(-c2ccccc2)c1N` equals 2.91

The recorded inhibition for entry `O=C1Nc2ccccc2/C1=C/Nc1ccc(-n2cncn2)cc1` equals 4.3

The recorded inhibition for entry `CS(=O)(=O)CCNCc1ccc(-c2ccc3ncnc(Nc4ccc(OCc5ccccc5)c(Br)c4)c3c2)o1` equals 15.8

The recorded inhibition for entry `COc1cc2ncn(-c3cc(OCCc4ccccc4)c(C(N)=O)s3)c2cc1OC` equals 0.49

The recorded inhibition for entry `COc1ccc(C2=C(N3CCc4ccccc43)C(=O)NC2=O)cc1` equals 2.96

The recorded inhibition for entry `COc1ccc2cc(-c3c(-c4ccncc4)nc(-c4ccc(S(C)(=O)=O)cc4C)n3C)ccc2c1` equals 3.3

The recorded inhibition for entry COc1ccc2cc(-c3c(-c4ccncc4)nc(-c4ccc([S+](C)[O-])cc4C)n3C)ccc2c1 (stereo unspecified) equals 0.13

The recorded inhibition for entry `NC(=O)Cc1ccccc1Oc1nccc(-c2c(-c3ccc(F)cc3)ncn2C2CCNCC2)n1` equals 0.65

The recorded inhibition for entry `COc1cc(Nc2ncc3c(C)nc(-c4cccc(C(F)(F)F)c4)n3n2)cc(OC)c1OC` equals 5.56

The recorded inhibition for entry `N#Cc1ccc(Oc2nccc(-c3c(-c4ccc(F)cc4)ncn3C3CCNCC3)n2)cc1` equals 3.42

====

- Target: ALK tyrosine kinase receptor (Homo sapiens)
- Test Settings: at 0.1 µM
- Description: GSK_PKIS: ALK mean inhibition at 0.1 uM [Nanosyn]
Assay Endpoint: inhibition (%)
Give the value in % but do not write % after it.

The recorded inhibition for entry `COc1cc2ncn(-c3cc(OCc4ccccc4C(F)(F)F)c(C(C)=O)s3)c2cc1OC` equals 2.65

The recorded inhibition for entry `CS(=O)(=O)CCNCc1cc(-c2cc3c(Nc4ccc(OCc5cccc(F)c5)c(Cl)c4)ncnc3s2)cs1` equals 2.96

The recorded inhibition for entry `COc1cc(C)c(N(C)C(=O)CN(C)C)cc1Nc1nc(Nc2cccc(F)c2C(N)=O)c2cc[nH]c2n1` equals 22.4

The recorded inhibition for entry `CNC(=O)c1cncc(/C=C/c2c(C)cccc2C)c1` equals -3.56

The recorded inhibition for entry `CN(c1ccc(NC(=O)Nc2c(Cl)cccc2Cl)cc1)c1ccnc(Nc2cccc(CS(C)(=O)=O)c2)n1` equals 1.74

The recorded inhibition for entry `CCS(=O)(=O)c1ccc(OC)c(Nc2ncc(-c3cccc(-c4ccccc4F)c3)o2)c1` equals 1.79

The recorded inhibition for entry `CCc1ccc(Oc2nccc(-c3c(-c4ccc(F)cc4)ncn3C3CCNCC3)n2)cc1` equals 1.79

The recorded inhibition for entry `COc1ccc(C2=C(N3CCc4ccccc43)C(=O)NC2=O)cc1` equals 1.29

The recorded inhibition for entry `O=C1Nc2ccccc2/C1=C/Nc1ccc(-n2cncn2)cc1` equals 1.97

The recorded inhibition for entry `C#Cc1cccc(Nc2ncnc3ccc(OCCCCNCCS(C)(=O)=O)cc23)c1` equals 3.38

The recorded inhibition for entry `COc1cc(Nc2ncc(-c3ccccc3)o2)cc(OC)c1OC` equals -2.74

The recorded inhibition for entry `NS(=O)(=O)c1ccc(Nc2cc(-c3ccc(O)c(F)c3)n[nH]2)cc1` equals -2.35

The recorded inhibition for entry `CN(C)c1ccc2c(c1)/C(=C/Nc1ccc(S(N)(=O)=O)cc1)C(=O)N2` equals 1.86

The recorded inhibition for entry `Fc1ccc(-c2ncn(CCCN3CCOCC3)c2-c2ccncc2)cc1` equals 1.45

The recorded inhibition for entry Nc1nccc(-c2c(-c3ccc(F)cc3)ncn2C2CCC(O)CC2)n1 (configuration not stated) equals -2.24

The recorded inhibition for entry `NC(=O)Cc1ccccc1Oc1nccc(-c2c(-c3ccc(F)cc3)ncn2C2CCNCC2)n1` equals 4.05

The recorded inhibition for entry `O=C1Nc2ccc(I)cc2C1=Cc1cc(Br)c(O)c(Br)c1` equals 3.04

The recorded inhibition for entry `COc1cccc(-n2cnc3c(N/N=C/c4ccncc4)ncnc32)c1` equals -1.9

The recorded inhibition for entry `Fc1ccc(-c2nc3n(c2-c2ccncc2)CCS3)cc1` equals -0.77

The recorded inhibition for entry `CCS(=O)(=O)c1ccc(OC)c(Nc2ncc(-c3ccccc3Cl)o2)c1` equals 0.79

The recorded inhibition for entry `COc1cccc(/C=N/Nc2ncnc3c2cnn3-c2cccc(OC)c2)c1` equals 1.22

The recorded inhibition for entry `Fc1ccc(-c2ncn(C3CCNCC3)c2-c2ccnc(Oc3ccc(F)c(F)c3)n2)cc1` equals -1

The recorded inhibition for entry `CCc1nccc2c1nc(-c1nonc1N)n2CC` equals 0.99

The recorded inhibition for entry `CN1CCN(CCCNc2nc3ccc(Oc4ccc(NC(=O)Nc5cc(C(F)(F)F)ccc5F)cc4)cc3[nH]2)CC1` equals -3.93

The recorded inhibition for entry `c1ccc(Oc2ccc(Nc3ncc(-c4ccccc4)o3)cc2)cc1` equals 0.41

The recorded inhibition for entry `Cc1ccc(C(=O)NC(C)C)cc1-c1ccc(C(=O)NCC2CC2)cc1` equals -4.4

The recorded inhibition for entry `Clc1ccc(CNc2nccc(-c3cnn4ncccc34)n2)cc1` equals -0.45
